# measured-on: HOG PANCREAS PHOSPHOLIPASE A2 (Sus scrofa, UniProt P00592)
# Sequence (P00592 23-146): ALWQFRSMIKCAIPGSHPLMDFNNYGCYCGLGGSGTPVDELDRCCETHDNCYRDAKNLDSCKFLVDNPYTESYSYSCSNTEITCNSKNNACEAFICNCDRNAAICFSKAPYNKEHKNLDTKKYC
Counter-ions that a name gives are not always drawn.
metric-name: pIC50
Numbers only, as −log10 of the molar value.

>  <compound>
CO[C@]1(c2ccccc2C)CC[C@@H](NCCCC(=O)c2ccc(F)cc2)CC1 [C, hydrochloride]

>  <pIC50>
4.93

$$$$
>  <compound>
O=C(CCCN[C@H]1CC[C@](CO)(c2ccccc2)CC1)c1ccc(Cl)cc1 [E, hydrochloride]

>  <pIC50>
4.53

$$$$
>  <compound>
CO[C@]1(c2ccc(C)cc2)CC[C@H](NCCCC(=O)c2ccc(F)cc2)CC1 [D, hydrochloride]

>  <pIC50>
4.83

$$$$

With those in mind, consider the next compound.
Prompt: Need pIC50 of `CN(CCCC(=O)c1ccc(F)cc1)[C@H]1CC[C@](CO)(c2ccccc2)CC1` , thanks.
Completion: 4.36
